- tested.system: rat NK1 receptor (rat) (UniProt P14600)
- Sequence (P14600 whole entry): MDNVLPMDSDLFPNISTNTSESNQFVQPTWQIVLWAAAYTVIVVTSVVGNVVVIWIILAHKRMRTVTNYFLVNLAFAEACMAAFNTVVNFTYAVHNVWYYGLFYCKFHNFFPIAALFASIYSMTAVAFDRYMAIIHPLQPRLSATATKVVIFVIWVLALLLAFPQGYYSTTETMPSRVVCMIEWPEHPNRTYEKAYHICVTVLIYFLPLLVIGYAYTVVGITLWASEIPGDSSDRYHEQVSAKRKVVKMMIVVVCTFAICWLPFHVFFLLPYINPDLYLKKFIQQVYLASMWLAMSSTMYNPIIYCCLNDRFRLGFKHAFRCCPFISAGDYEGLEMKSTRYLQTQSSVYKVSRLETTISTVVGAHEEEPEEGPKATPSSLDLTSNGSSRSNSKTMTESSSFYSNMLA
- assay.method.text: competition vs [3H]Substance P, rNK1 CHO cell membranes
measure: Ki (nM)
Numbers only, in nM.

Bench note: what Ki did Tyr-Gly-Trp-O-3′,5′(CF3)2-Bzl (peptide) show?
0.36

====

- tested.system: human NK1 receptor (human)
- assay.method.text: competition vs [3H]Substance P, hNK1 CHO cell membranes
measure: Ki (pM)
Numbers only, in pM.

Bench note: what Ki did Tyr-Gly-Trp-O-3′,5′(CF3)2-Bzl (peptide) show?
3
